- target.system: B2 bradykinin receptor (Oryctolagus cuniculus, UniProt Q28642)
- Sequence (Q28642 whole entry): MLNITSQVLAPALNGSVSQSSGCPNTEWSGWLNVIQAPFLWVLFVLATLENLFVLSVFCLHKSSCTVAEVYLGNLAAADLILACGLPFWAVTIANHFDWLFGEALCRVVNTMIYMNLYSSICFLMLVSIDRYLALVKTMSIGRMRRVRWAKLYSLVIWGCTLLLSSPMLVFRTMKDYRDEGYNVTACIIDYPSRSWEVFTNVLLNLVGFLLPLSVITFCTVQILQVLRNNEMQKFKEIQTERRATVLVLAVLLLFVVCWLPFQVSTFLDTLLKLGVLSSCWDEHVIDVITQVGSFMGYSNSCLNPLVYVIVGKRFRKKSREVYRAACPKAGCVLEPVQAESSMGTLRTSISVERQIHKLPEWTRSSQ
- assay.details: In vitro antagonistic activity against kinin-induced rabbit jugular vein contraction.
- Type: functional
- condition.notes: read-out: pA2 (converted)
Square brackets hold non-standard residues; d marks the D form. Peptide text beside a SMILES is read from it. * marks the point of attachment. ξ: configuration not given here. Oic(3aξ,7aξ) = O=C(O)[C@@H]1CC2CCCCC2N1; Tic = O=C(O)[C@@H]1Cc2ccccc2CN1; 2Thi = N[C@@H](Cc1cccs1)C(=O)O; X2 = N=C(N)NCCCCCC(=O)*
endpoint.name: Kb (nM)

(A) N=C(N)NCCCCCC(=O)N[C@@H](Cc1cccs1)C(=O)N1Cc2ccccc2C[C@H]1C(=O)N1C2CCCCC2C[C@H]1C(=O)N[C@@H](CCCNC(=N)N)C(=O)O (stereo partly drawn) (X2-[2Thi][Tic][Oic(3aξ,7aξ)]R-OH)
(B) NC(N)=NCCC[C@H](NC(=O)[C@@H]1CC2CCCCC2N1C(=O)[C@@H]1Cc2ccccc2CN1C(=O)[C@H](CO)NC(=O)[C@@H](N)Cc1ccccc1)C(=O)O (stereo partly drawn) (H-FS[Tic][Oic(3aξ,7aξ)]R-OH)
(C) N=C(N)NCCC[C@@H]1NC(=O)[C@@H]2CC3CCCCC3N2C(=O)[C@H]2Cc3ccccc3CN2C(=O)[C@H](CO)NC(=O)[C@H](Cc2cccs2)NC(=O)CCCNC1=O (stereo partly drawn)
Order these compounds (above) by their Kb, from the smallest value upward. Rank the items, then write their labels in that order.
C, B, A

----------
- target.system: B2 bradykinin receptor (Homo sapiens)
- assay.details: Antagonistic activity against bradykinin B2 receptor as human umbilical vein contraction
- Format: functional, tissue-based
Square brackets hold non-standard residues; d marks the D form. Peptide text beside a SMILES is read from it. * marks the point of attachment. ξ: configuration not given here. X1 = NC(N)=NCCC[C@@H](NC(=O)[C@H](Cc1ccccc1)NC(=O)N1CCC[C@H]1C(=O)[C@H](CO)N*)C(=O)O; Oic(3aξ,7aξ) = O=C(O)[C@@H]1CC2CCCCC2N1; Tic = O=C(O)[C@@H]1Cc2ccccc2CN1; 2Thi = N[C@@H](Cc1cccs1)C(=O)O
endpoint.name: pKb

# compound, endpoint.name, numeric.readout
data = [
    ("NC(N)=NCCC[C@H](NC(=O)[C@@H](Cc1ccccc1)NC(=O)[C@@H](N)CCCN=C(N)N)C(=O)N1CCC[C@H]1C(=O)N1CCC[C@H]1C(=O)NCC(=O)N[C@@H](Cc1ccccc1)C(=O)N[C@@H](CO)C(=O)[C@@H]1CCCN1C(=O)N[C@@H](Cc1ccccc1)C(=O)N[C@H](CCCN=C(N)N)C(=O)O (H-R[dF]RPPGF-X1)", "pKb", 5.16),
    ("N=C(N)NCCC[C@@H]1NC(=O)[C@@H]2CC3CCCCC3N2C(=O)[C@H]2Cc3ccccc3CN2C(=O)[C@H](Cc2ccccc2)NC(=O)CNC1=O (some centres undefined)", "pKb", 5.13),
    ("NCC(=O)N[C@@H](Cc1cccs1)C(=O)N1Cc2ccccc2C[C@H]1C(=O)N1C2CCCCC2C[C@H]1C(=O)N[C@@H](CCCN=C(N)N)C(=O)O (some centres undefined) (H-G[2Thi][Tic][Oic(3aξ,7aξ)]R-OH)", "pKb", 4.79),
    ("N=C(N)NCCC[C@@H]1NC(=O)[C@@H]2CC3CCCCC3N2C(=O)[C@H]2Cc3ccccc3CN2C(=O)[C@H](Cc2cccs2)NC(=O)CNC1=O (some centres undefined)", "pKb", 4.93),
]
